- measurement_notes: NCI Yeast Anticancer Drug Screen. Data for the rad50 strain (AID 155)
- measurement_parameters: S. cerevisiae rad50 strain growth inhibition; at 5.0 µM (retest, dose inferred, filed as 0.5)
Compounds without any hit were thinned out: in the full panel of roughly 79,000, 15% have a hit. Calls of active or inactive are those of the source. No stated cut-off is given here; in the data, active means growth inhibition above about 70%; inactive means the rest.
Lab note: assign the record to one of active, inactive

compound | cat
CCOC(=O)NP(=O)(NNc1ccccc1)NNc1ccccc1 | active

### Prompt // outcome(item) with item = COc1ccc(C[C@H]2NC[C@H](O)[C@H]2OC(C)=O)cc1
### Response inactive

### Prompt // outcome(item) with item = Cc1[cH-]c(=O)n(-c2ccccc2)n1.[Au+].[Au].c1ccc([PH+](c2ccccc2)c2ccccc2)cc1.c1ccc([PH+](c2ccccc2)c2ccccc2)cc1
### Response inactive

### Prompt // outcome(item) with item = CC([CH2][Hg][Cl])c1ccccc1 (stereo not given)
### Response active

### Prompt // outcome(item) with item = O=Cc1ccccc1O.O=Cc1ccccc1O.[O]=[Mo]=[O]
### Response inactive
